Reported melting point values follow for various compounds
parameter: melting point

INSERT INTO assay_data (compound, reported_value) VALUES
  ('CS(=O)(=O)c1ccc(Oc2cc(OC3CCOCC3)c3[nH]c(C4=NCC(CC(N)=O)S4)cc3c2)cc1 (centres unmarked) [Example 5]', '176 to 177 °C'),
  ('CCc1cc(Oc2ccc(S(C)(=O)=O)nc2)cc2cc(C3=NCC(CC(=O)O)S3)[nH]c12 (centres unmarked) [Example 60]', '230 to 232 °C'),
  ('CC(C)(O)CNC(=O)CC1CN=C(c2cc3cc(Oc4ccc(S(C)(=O)=O)nc4)cc(OC4CCOCC4)c3[nH]2)S1 (centres unmarked) [Example 39]', '195 to 196 °C'),
  ('Cc1cc(Oc2ccc(S(C)(=O)=O)nc2)cc2cc(C3=NCC(CC(=O)NC[C@@H](C)O)S3)[nH]c12 (some centres unmarked) [Example 77]', '168 to 169 °C'),
  ('Cc1cc(Oc2ccc(S(C)(=O)=O)nc2)cc2cc(C3=NCC(CC(=O)N4CC[S+]([O-])CC4)S3)[nH]c12 (centres unmarked) [Example 81]', '157 to 160 °C'),
  ('CS(=O)(=O)c1ccc(Oc2cc(OC3CCOCC3)c3[nH]c(C4=NCC(CC(N)=O)S4)cc3c2)nc1 (centres unmarked) [Example 16]', '188 to 190 °C'),
  ('CN(C)C(=O)CC1CN=C(c2cc3cc(Oc4ccc(S(C)(=O)=O)nc4)ccc3[nH]2)S1 (centres unmarked) [Example 64]', '190 to 191 °C'),
  ('COCCNC(=O)CC1CN=C(c2cc3cc(Oc4ccc(S(C)(=O)=O)nc4)ccc3[nH]2)S1 (centres unmarked) [Example 57]', '155 to 156 °C');

Hey, just so you know, these numbers are from patent US8557805B2.
